Target: UniProtKB Q07820
Sequence (Q07820 whole entry): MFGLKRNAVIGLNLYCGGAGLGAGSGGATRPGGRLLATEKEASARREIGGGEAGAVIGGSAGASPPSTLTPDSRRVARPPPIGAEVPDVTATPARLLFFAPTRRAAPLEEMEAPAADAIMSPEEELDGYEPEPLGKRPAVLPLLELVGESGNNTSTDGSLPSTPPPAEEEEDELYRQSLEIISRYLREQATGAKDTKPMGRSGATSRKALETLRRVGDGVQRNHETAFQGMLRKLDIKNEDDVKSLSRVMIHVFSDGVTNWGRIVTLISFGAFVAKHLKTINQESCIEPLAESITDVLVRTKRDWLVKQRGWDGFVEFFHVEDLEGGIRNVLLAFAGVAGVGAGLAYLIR
Test: Cell free Mcl-1:Bim affinity assay (fluorescence polarization competition)
Assay type: binding
Details: 15 nM MCL-1, 5 nM FITC-Bim, 1 hour at room temperature; class symbols; read-out: BIM_Ki
pKi: −log10 of the molar value.
assay.endpoint: pKi

Consider the worked cases shown below.
{"columns": ["structure.smiles", "assay.endpoint", "endpoint.value"],
 "data": [
  ["CO[C@H]1CCCCC(=O)NS(=O)(=O)c2ccc3c(c2)N(C[C@@H]2CC[C@H]21)C[C@@]1(CCCc2cc(Cl)ccc21)CO3", "pKi", "7.00 to 9.00"],
  ["CN(C)C(=O)O[C@@H]1/C=C/COC2(CC2)C(=O)NS(=O)(=O)c2ccc3c(c2)N(C[C@@H]2CC[C@H]21)C[C@@]1(CCCc2cc(Cl)ccc21)CO3", "pKi", "> 9.00"]
]}

Turning now to a further record.
// sample CO[C@H]1/C=C/CC[C@H](C)C(=O)NS(=O)(=O)c2ccc3c(c2)N(C[C@@H]2CC[C@H]21)C[C@@]1(CCCc2cc(Cl)ccc21)CO3 , its pKi was 7.00 to 9.00

* * *

Test system: H929 cells
Test: Cell viability assay (H929 10 FBS)
Assay type: cell-based
Conditions: Homo sapiens, NCI-H929, 24 hours, read-out: H929_10FBS IC50
pIC50: −log10 of the molar value.
assay.endpoint: pIC50

{"columns": ["structure.smiles", "assay.endpoint", "endpoint.value"],
 "data": [
  ["COC1CN(CCO[C@H]2/C=C/COC(C)(C)C(=O)NS(=O)(=O)c3ccc4c(c3)N(C[C@@H]3CC[C@H]32)C[C@@]2(CCCc3cc(Cl)ccc32)CO4)C1", "pIC50", "> 6.30"],
  ["CN(C)C(=O)O[C@H]1/C=C/COC2(CCC2)C(=O)NS(=O)(=O)c2ccc3c(c2)N(C[C@@H]2CC[C@H]21)C[C@@]1(CCCc2cc(Cl)ccc21)CO3", "pIC50", "> 6.30"],
  ["CN1C/C=C/[C@H](OC(=O)NCC2CC2)[C@@H]2CC[C@H]2CN2C[C@@]3(CCCc4cc(Cl)ccc43)COc3ccc(cc32)S(=O)(=O)NC(=O)C1(C)C", "pIC50", "> 6.30"],
  ["CC1(C)OC/C=C/[C@H](OC(=O)NC2CCOCC2)[C@@H]2CC[C@H]2CN2C[C@@]3(CCOc4cc(Cl)ccc43)COc3ccc(cc32)S(=O)(=O)NC1=O", "pIC50", "> 6.30"],
  ["O=C(Cc1ccncc1)NS(=O)(=O)c1ccc2c(c1)N(CC1CCC1)C[C@@]1(CCCc3cc(Cl)ccc31)CO2", "pIC50", "< 6.00"]
]}

// sample CC1(C)OC/C=C/[C@H](OCC(=O)N2CC(F)(F)C2)[C@@H]2CC[C@H]2CN2C[C@@]3(CCCc4cc(Cl)ccc43)COc3ccc(cc32)S(=O)(=O)NC1=O , its pIC50 was > 6.30

// sample COCCN1CCN(C(=O)O[C@H]2/C=C/COC(C)(C)C(=O)NS(=O)(=O)c3ccc4c(c3)N(C[C@@H]3CC[C@H]32)C[C@@]2(CCCc3cc(Cl)ccc32)CO4)CC1 , its pIC50 was > 6.30

// sample CNC(=O)O[C@H]1/C=C/COC2(CC2)C(=O)NS(=O)(=O)c2ccc3c(c2)N(C[C@@H]2CC[C@H]21)C[C@@]1(CCCc2cc(Cl)ccc21)CO3 , its pIC50 was > 6.30
